Task for the reader: assign each of the following compounds its reported z-score.
# Assay Explanation: viability profiling in RPMI8226 myeloma cells – cell-based, resazurin fluorescence, basal, 24 h, PK04 Diversity Set, profiling panel (AID 1180);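 also: RPMI8826 multiple myeloma cell line at 5000 cells per well; test concentration not given here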
# Cond: higher = more signal
Numbers only.

Field: example entries. Status: answers known.
O=C1OCCC/C=C\[C@H]2OC34C=CCN(c5ccc6ccccc6c5)C(=O)[C@H]3N(CCCCCO)C(=O)[C@@H]4C12 (stereo partly drawn) : 0.408
CN(C)CCCCNC(=O)[C@@H]1C[C@@H]2C(=O)N[C@@H](CCCCN)C(=O)N2[C@@H]1c1ccc(O)cc1 : 0.918
CC(c1ccccc1)C(O)C1C=CC2C(=O)N(C)C(=O)C2N1NC(=O)OC(C)(C)C (stereo not drawn) : 0.15
CC(=O)Nc1cc(Br)ccc1C(=O)NCc1ccccc1 : -0.108

List the reported z-score of each compound below.
1. NCCCCCCNC(=O)[C@H]1C[C@H]2C(=O)N[C@@H](Cc3ccccc3)C(=O)N2[C@H]1c1cccc(OCCO)c1
2. CCOC(=O)C[C@H]1[C@H](OC(=O)c2ccc(C(=O)c3ccccc3)cc2)[C@@H](NC(=O)Cc2ccc(OC)cc2)c2cc(OCCCO)ccc2N1C(=O)c1ccc2ccccc2n1
3. CC(C)(C)OC(=O)CC[C@]1(C(=O)NCCN2CCOCC2)COC(c2ccc(OCCCO)cc2)=N1
4. O=C(CS)NCCCCCNC(=O)[C@@H]1C[C@@H]2C(=O)NCC(=O)N2[C@@H]1c1ccc(O)cc1

Marked response:
1.06
0.273
0.513
-0.492
